system: SK-OV-3 ovarian; test: NCI-60 one-dose screen, 48 h; settings: 100 µM
Compounds without any hit were thinned out: in the full panel of roughly 83,000, 20% have a hit. The source made the active and inactive calls. How the source made its calls: active means growth percent below 10; inactive means the rest.
Tick one outcome: True for active, False for inactive

Smiles notation: O=C(O)c1c(Cl)c(Cl)c(Cl)c(Cl)c1-c1c2cc(I)c(=O)c(I)c-2oc2c(I)c(O)c(I)cc12
Classification: True
//
Smiles notation: O=C(Nc1c(Cl)cccc1Cl)Oc1cccc2cccnc12
Classification: False

Query: recorded result category for CN(C)C(=O)c1ccc(SC(=S)NCc2ccccc2)cc1 in this test
False

What classification did O=C(Nc1cccc(Br)c1)Oc1cccc2cccnc12 end up with in this test?
False

* * *

tested on: SK-MEL-28 melanoma; experiment: NCI-60 one-dose screen, 48 h; conditions: 10 µM unless noted
The panel holds about 83,000 compounds, 20% with a hit somewhere; the sample as a whole holds those more often. Active and inactive are the calls of the source. The calls were made as follows: active = growth percent below 10; inactive = the rest.
Log the outcome using a class from active, inactive

For COC(=O)c1nc(=S)[nH]c(C(=O)OC)c1C(=O)c1ccc2ccccc2c1 , what call appears in the results of this test?
inactive

Tell me the assay call for O=C(CC1(O)C(=O)Nc2c(Cl)ccc(Cl)c21)c1ccc(Cl)cc1Cl (stereo unspecified) please.
inactive

Status in this test for CC(C)(C)CC(C)(C)c1ccc(OCCSC(=N)N)cc1 ?
active

Status in this test for COc1cc(/C=C(/C)C[N+](=O)[O-])ccc1O ?
inactive

Per the records of this test, what outcome belongs to CCN1/C(=C\c2cc[n+](CC)c3ccccc23)C=Cc2ccccc21 ?
active

Status in this test for O=C(Nc1cccc(Br)c1)Oc1ccc(Cl)c2cccnc12 ?
inactive

* * *

test system: NCI-H522 lung; test: NCI-60 one-dose screen, 48 h; settings: 10 µM unless noted
Compounds without any hit were thinned out: in the full panel of roughly 83,000, 20% have a hit. Calls of active or inactive are those of the source. The calls were made as follows: active = growth percent below 10; inactive = the rest.
One label from this list, please: Y = active, N = inactive

Molecule: Cn1c2ccccc2c2nnc(N/N=C/c3ccccn3)nc21
Assay system: NCI-H522 lung
Classification: N
//
Molecule: C1=C(c2ccccc2)C(c2ccc(OCCN3CCCCC3)cc2)Oc2ccccc21 (configuration not stated)
Assay system: NCI-H522 lung
Classification: N
//
Molecule: O=C(/C=C/C=C/c1ccccc1)c1ccco1
Assay system: NCI-H522 lung
Classification: N
//
Molecule: CCCCCCCCCCCCCCCCN(CC)CC
Assay system: NCI-H522 lung
Classification: Y
//
Molecule: O=C1NC(=O)/C(=C/C=C/c2ccccc2)S1
Assay system: NCI-H522 lung
Classification: N
//
Molecule: Cc1ccnc(NC(c2ccccc2)c2ccc3cccnc3c2O)c1 (configuration not stated)
Assay system: NCI-H522 lung
Classification: Y
//
Molecule: CC(C)(C)c1ccc(O)c(C2CCCCC2)c1
Assay system: NCI-H522 lung
Classification: N
//
Molecule: CN(Cc1cnc2nc(N)nc(N)c2n1)c1ccc(C(=O)NC(CCC(=O)O)C(=O)O)cc1 (configuration not stated)
Assay system: NCI-H522 lung
Classification: N
//
Molecule: N#CSCC(=O)c1ccc(Cl)cc1
Assay system: NCI-H522 lung
Classification: N
//
Molecule: CC(C)(C)CC(C)(C)c1ccc(OCCSC(=N)N)cc1
Assay system: NCI-H522 lung
Classification: N

Test call, this molecule: S=C(N/N=C/c1ccccn1)Nc1ccccn1
Y

// outcome(item) with item = Cc1ccc2nc(C[n+]3ccc4ccccc4c3)ccc2c1
N

* * *

test system: LOX IMVI melanoma; experiment: NCI-60 one-dose screen, 48 h; settings: 10 µM unless noted
Compounds without any hit were thinned out: in the full panel of roughly 83,000, 20% have a hit. Active and inactive are the calls of the source. The calls were made as follows: active = growth percent below 10; inactive = the rest. Where a SMILES comes first, the peptide text is derived from it. The star is where a group is joined. Trt = c1ccc(C(c2ccccc2)(c2ccccc2)*)cc1; Cbz = O=C(OCc1ccccc1)*
One label from this list, please: active, inactive

Illustrative cases are given below, each with its answer.
Compound: O=C(Nc1ccc(F)cc1)ON=C1CCCCC1
Classification: inactive

Compound: Oc1ccc(/C=N/NC(=S)Nc2ccccc2)nc1
Classification: active

Recorded call for COC(=O)c1nc(=S)[nH]c(C(=O)OC)c1C(=O)c1ccccn1 ?
inactive

What did this assay record as the result for CNC(=O)N/N=C/c1ccc([N+](=O)[O-])o1 ?
inactive

I would be grateful if you could indicate the recorded call for CCN(CC)CC(C)(C)C(=O)/C=C/c1ccc(Cl)c(Cl)c1 .
active

Recorded test outcome, item Cc1ccc(N=C=C(c2ccccc2)c2ccccc2)cc1
active

Dear colleague, could you share the recorded outcome for COC(=O)C(CSC(c1ccccc1)(c1ccccc1)c1ccccc1)NC(=O)C(CC(N)=O)NC(=O)OCc1ccccc1 (stereo not drawn) (Cbz-Asn-Cys(Trt)-OMe; configuration not given here) when you have a moment?
active

* * *

Listed here: items and their measured growth.
Test system: HT29 colon
Assay: NCI-60 one-dose screen, 48 h (100 = growth as untreated, 0 = no growth, -100 = all killed)
Settings: 10 µM unless noted
Experimental: Growth inhibition of the HT29 human tumor cell line is measured as a screen for anti-cancer activity. Cells are grown in 96 well plates and exposed to the test compound for 48 hours. Compounds are tested at a single concentration, which is 10^-5 M for most compounds. The reported endpoint is percent growth (GI% or GIPRCNT), where numbers from 0 - 100% represent growth inhibition, and numbers from -100% - 0 represent cell death. For example, a value of 40 represents 60% growth inhibition. […]
The panel holds about 83,000 compounds, 20% with a hit somewhere; the sample as a whole holds those more often.
Write the answer as a number in %, unit excluded.

Smiles notation: NC(=S)N/N=C\c1nccc2c(C(F)(F)C(F)(F)C(F)(F)F)cccc12
Readout: growth
Units of measure: %
Value: 8.84
//
Smiles notation: O=C1c2ccccc2C(=O)N1c1ccccc1
Readout: growth
Units of measure: %
Value: 104
//
Smiles notation: N#CSCc1c(Cl)cccc1Cl
Readout: growth
Units of measure: %
Value: 12
//
Smiles notation: Cc1ccc(C(=Nc2ccccc2)N=P(c2ccccc2)(c2ccccc2)c2ccccc2)cc1
Readout: growth
Units of measure: %
Value: 2.74
//
Smiles notation: Cc1cc(C(C)(CC(C)C)c2ccc(O)c(C)c2)ccc1O
Readout: growth
Units of measure: %
Value: 98.7

Noted for C[n+]1c(/C=C/c2ccc([N+](=O)[O-])cc2)ccc2ccccc21 : its growth reads 104

* * *

Test system: UO-31 renal
Test: NCI-60 one-dose screen, 48 h (100 = growth as untreated, 0 = no growth, -100 = all killed)
Conditions: 10 µM unless noted
Method: Growth inhibition of the UO-31 human tumor cell line is measured as a screen for anti-cancer activity. Cells are grown in 96 well plates and exposed to the test compound for 48 hours. Compounds are tested at a single concentration, which is 10^-5 M for most compounds. The reported endpoint is percent growth (GI% or GIPRCNT), where numbers from 0 - 100% represent growth inhibition, and numbers from -100% - 0 represent cell death. For example, a value of 40 represents 60% growth inhibition. […]
Compounds without any hit were thinned out: in the full panel of roughly 83,000, 20% have a hit.
Decide using growth alone. Strictly below 80%: Yes. Equal to or above 80%: No.

Below, 4 compounds whose answers are already recorded.
Smiles notation: c1ccc2c(c1)Nc1cc3ccccc3cc1N2
Classification: Yes

Smiles notation: Cc1ccc2c(ccc3c[n+]4c5ccccc5ccc4n32)c1
Classification: Yes

Smiles notation: CCCCCC(CCCCC)C(=O)O
Classification: No

Smiles notation: CCOC(=O)/C=C/c1ccc([N+](=O)[O-])o1
Classification: Yes

Consider the record given below.
Record C[N+](C)=c1ccc2nc3c(cc(NCCCNc4cc5oc6cc(=[N+](C)C)ccc-6nc5c5ccccc45)c4ccccc43)oc-2c1 : is its growth strictly below 80%?
Yes

* * *

tested on: CAKI-1 renal; assay: NCI-60 one-dose screen, 48 h (100 = growth as untreated, 0 = no growth, -100 = all killed); conditions: 10 µM unless noted
This is part of a sample that, as a whole, favours compounds with a hit. Of some 83,000 tested, about 20% had one in any assay.
Recorded growth values for a group of compounds are listed next.
Numeric only. Scale: %

Illustrative cases are given below, each with its answer.
Compound: O=C(Nc1ccccc1)c1cc(Cl)ccc1O
growth (%): 49.6
//
Compound: CN=C(N)N/N=C(\C)c1ccc2c(c1)Cc1cc(/C(C)=N/NC(N)=NC)ccc1-2
growth (%): 23.4

API: the following record is the query input.
# growth (compound: CCC(c1cccc(O)c1)C(CC)c1cccc(O)c1 (stereo not drawn) ) is 66.4

* * *

tested on: OVCAR-5 ovarian; test: NCI-60 one-dose screen, 48 h (100 = growth as untreated, 0 = no growth, -100 = all killed); conditions: 10 µM unless noted
The panel holds about 83,000 compounds, 20% with a hit somewhere; the sample as a whole holds those more often.
The reader will find reported growth values listed item by item below.
Supply the numeric figure in %, leaving out any unit text.

In the examples that follow, each entry is paired with its recorded growth.
Compound: CN(C)c1ccc(C(=C2C=CC(=[N+](C)C)C=C2)c2ccc(N(C)C)cc2)cc1 (tested in a mixture with another compound)
Assay system: OVCAR-5 ovarian
growth / %: -66.9

Compound: Cc1ccnc(NC(c2ccccc2)c2ccc3cccnc3c2O)c1 (stereo not given)
Assay system: OVCAR-5 ovarian
growth / %: 69.9

Compound: CCCCCCCCCCCCCCCC[N+](C)(CCO)Cc1cnc[nH]1 (stereo not given)
Assay system: OVCAR-5 ovarian
growth / %: -13.7

Reported growth of O=C1OCc2cccc3cccc1c23 : 108

growth reading for CC(=O)ON=C1C=CC(=C(C#N)c2ccccc2)C=C1 : 123

growth reading for Cc1cc(N)c2ccccc2[n+]1CCCCCCCCCC[n+]1c(C)cc(N)c2ccccc21 : -58.1

Reported growth of NC(=S)N/N=C\c1nccc2c(C(F)(F)C(F)(F)C(F)(F)F)cccc12 : 42.3

So for NC1=CC(=O)c2ccccc2C1=O , the logged growth turned out to be 110

Sample CC(C)c1ccc2nc3ccc(C(=O)NCCN4CCN(c5ccccc5)CC4)cn3c(=O)c2c1 ; growth observed: 91.1

According to the records, this compound Cc1ccc(N=C=C(c2ccccc2)c2ccccc2)cc1 displays growth of 113
